Tested on: K4 kissing-loop RNA reporter
protocol.text: apparent KD of K4 kissing-loop reporter; higher = weaker reporter binding
test.context: Eterna round: R107; input ligand: arginine 13.2 mM
parameter.measured: apparent KD of K4 kissing-loop reporter (µM)
Give bare numbers, in µM.

Record excerpt, results attached:
construct.sequence	scale.unit	apparent KD of K4 kissing-loop reporter
UAUAAGCGCAGAGGAUAUACUAGCUUUCACUAGUGCAGUGAUGUUGCACUAGACCAGCUGUACAUAGUAGAAGGCUGCGUUCCUU [FMN B SS t1]	µM	0.116
UGAUACCAGACGGCCGCCACUCCUGCAGUCAAAGACUGCAAAGGAAUAUUCGUCCAGUGAUGUUGGAGGACCGGGUCUGGUAUCU [TrypBX 11 #SwitchBubble #Palindromic #StaticStem]	µM	0.698
UAGUCCGAGUGAUGGUCAUCACGUGGCGGGCGAGGACCGGUACGGCCGCCACUCGACUUUGCAGUGAUGUUGCAAACCGGACAAU [Exclusion - Tryptophan A (Freestyle 21)]	µM	0.185
AAGCGUGUGGCGGCCGCCACUAGUCUCCAGUGAUGUUGGAGAGAUCACGUAAGUGAUCUCCGACAUAGGACCGGGCCAUAUGGAA [Same State - Tryptophan B (Freestyle 23)]	µM	0.125

--- query ---
q: So what's the measured apparent KD of K4 kissing-loop reporter for this one? GCUAGGCAUGCAGGAUAUCGCCGAGUGAUGUUCGGUAGGCCGCUUUCUUUCUUUCUUUGCGGCCAGCGAGAAGGGCAUGCCUAGC
a: 0.112

----------
System: K4 kissing-loop RNA reporter;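 further: bound reporter read as fluorescence of individual clusters on recovered sequencing chips by microscopy, with normalized cluster intensities fitted with a binding model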
protocol.text: apparent KD of K4 kissing-loop reporter; higher = weaker reporter binding
test.context: Eterna round: R107; input ligand: none
parameter.measured: apparent KD of K4 kissing-loop reporter (µM)
Numbers only, in µM.

Respectfully, I request apparent KD of K4 kissing-loop reporter for each entry included below.
1. GCUACUGCUGAAGGAUAUAUCAAUAGAGUGAUGUUCUAUGUCGGUAGCCCGAAAGGGCUACCGACGAUAGAAGGUCAGCAGUAGC
2. AAGGGCGGGACUUCCUCGCCGGAUAGAGAUACCAGCCCUGCAAAGGGCCCUUGGCAGCUCACUGACCUCAGUGAUGUUGAGGUUC [Maanveri]
3. GGUAGCAUGGCGGCCGCCACUACAAGUAGUGACCCAAGUGAUGUUUGGAAGCGGGUCCUAAUUGGUAGGACCGGGCCAUGCUACC
4. UACAGGGAUAGUGAUGUUAUCCCAUGUGAUACCAGUGCCAUCCAACACCCUUGGCAGCAUACGGGCAGUGAUGUUGUUCUUGGUU [Exclusion Theophylline A GF 13]
5. ACGCGCGCGAGUGAUGUUCGGAGCGGCUGGCAGGAUAUGUAGCAAUGCAGAAGGGUCGUGGCGCGUCCAGGGUAACCUGGACGCG [#2 Exclusion - FMN A Attempt #26 (HarryS)]
6. AGGCACGAGCAAGGAUAUCGAGUAGAGUGAUGUUCUGCCUGGGUUGGCUCGUAAGGGCCUUCCCAGCGAGAAGGUGCUCGUGCCU [#2 Same State - FMN A Attempt #15 (HarryS)]

a:
1: 0.723; 2: 0.234; 3: 0.496; 4: 0.0937; 5: 1.04; 6: 0.877

----------
Tested on: MS2 coat protein
protocol.text: apparent KD of MS2 coat protein; higher = weaker reporter binding
test.context: Eterna round: R107; input ligand: arginine 13.2 mM
Please mark yes (1) if the recorded apparent KD of MS2 coat protein is equal to or greater than 30 nM, and no (0) if it falls below.

Record excerpt, results attached:
construct.sequence	experimental.system	classification
AAACAUGACAUGGAUACCAGACACAUGAGGAUCACCCAUGUUGAGGAUCACCCAUGUCCCGUCCCUUGGCAGCCAGCAUGAGGAU [Exclusion Theophylline B 2]	MS2 coat protein	no (0)
UCGACAAGAACAAUAAACAGCACUUGAGAAGGAGCGCGGAAAUCCGCAGGUAGGUCGCUCAUGUGUACAUGAGGAUCACCCAUGU [Inveonxeed]	MS2 coat protein	yes (1)
AUUACAUGGAUUACAACUAAAUCAACUGAAGGAGCGUGAAGGAUCACAGGUAGGUCGCAGUACAUGAGGAUCACCCAUGUUAUAA [JR_Nu_SSArginiA_Sub021]	MS2 coat protein	yes (1)

q: Textbook exercise: given the entry AGCGACAUGCGUGAUACCAGCUACAUGAGGAUCACCCAUGUACGUCAGAAAUGACUGUGUAGCCCUUGGCAGCAUAGUGCAUGUC [Exclusion - Theophylline B (Freestyle 20)] , state whether its apparent KD of MS2 coat protein is greater than or equal to 30 nM.
a: yes (1)

q: Textbook exercise: given the entry GGGUGGUAGGCGGCCGCCACUGAUUUUUAUUUAUAGAUGACAUGAGGAUCACCCAUGUAGAUAUGCAGGACCGGGCCUGUUGUUU [aaaO] , state whether its apparent KD of MS2 coat protein is greater than or equal to 30 nM.
a: no (0)

----------
System: MS2 coat protein
protocol.text: apparent KD of MS2 coat protein; designed switch direction (-1 OFF switch, 1 ON switch): -1; higher = weaker reporter binding
test.context: input ligand: none
Exercise: for every item that follows, state its recorded apparent KD of MS2 coat protein.
Answers are plain numbers, in nM.

Record excerpt, results attached:
construct.sequence	experimental.system	apparent KD of MS2 coat protein [nM]
ACAAGCUUAAAAAUCCUAAACAUGAGGAUCACCCAUGUUCGUCUUAUAAAAAUAAAAAUAAAAAAUAAAAAAUAAAA [Sensor V2: 70] (Eterna round: R96, puzzle: Sensor v2, turn-off variant)	MS2 coat protein	51.9
CUAAAUCAUGUAGGAUAUGCGUGGCAAAGCUAUGCAGAAGGACAUGAGGAUCACCCAUGUCAUUCCGUCUGCGUACAGACGGGA [Mat - Exclusion NG 1 - Mod of JL - D49] (Eterna round: R96, puzzle: Exclusion NG 1)	MS2 coat protein	24.9
AGAAAUCUGUAGGAUAUGUUGAACACCGUGUACACAGAAGGGCAGACAUGAGGAUCACCCAUGUGGUGGGCCAG [Eternabot (L1) Solution 91] (Eterna round: R97, puzzle: Exclusion 6)	MS2 coat protein	469
AUCGUGCAGCAAAGCUGUACGAGUACAUGAGGAUCACCCAUGUAGGAUAUGGUACGCAAAGCGUGCUAGAAGGAUAUGUGUAGG [Mat - Exclusion NG 3 - Mod of JL - D84] (Eterna round: R96, puzzle: Exclusion NG 3)	MS2 coat protein	57.1
CGAGCUUUUUGCUCGUCUUACAUGAGGAUCACCCAUGUCAUACAGAUAGAUAUACGAAAAGUAUAUCUAUCUGUAUG [Mod of sellena's -59.4, -80.7 kcal, A 10%] (Eterna round: R97, puzzle: Sensor, turn-off variant 1)	MS2 coat protein	27.5

Respectfully, I request apparent KD of MS2 coat protein for each entry included below.
1. CUGCUUUUGGUGAGGAUAUGCGGUAGCUGGGUACCGCAGAAGGCACAUGAGGAUCACCCAUGUGAUCUGAAAGC [Eternabot (L1) Solution 5] (Eterna round: R97, puzzle: Brourd's mod of Exclusion 4)
2. CAUGAUUGGGAAGGAUAUUGACCUAGUUAGUGCCGAGAAGGUCCCUUUCACAUGAGGAUCACCCAUGUGAGUCUGGUGUUCGAG [Ex NG1 #97] (Eterna round: R96, puzzle: Exclusion NG 1)
3. UGCUGACGAGGAUAUACAUGAGGAUCACCCAUGUUGGUCAAGCGACUUCGGUCGCAAUGUAGAAGGCGUCAGCU [E3/8-A6] (Eterna round: R97, puzzle: Exclusion 3)
4. UAAAUGUGAGGAUAUUCGAUGAACACGGAGACGUGUUUAUCGGAGAAGGCACAUGAGGAUCACCCAUGUUCCUU [Mat - Exclusion 4 - JL Mod - D5] (Eterna round: R97, puzzle: Exclusion 4)

a:
1. 61.2
2. 30.5
3. 395
4. 24.7

----------
Exercise: for every item that follows, state its recorded apparent KD of MS2 coat protein.
Test system: MS2 coat protein
protocol.text: apparent KD of MS2 coat protein; higher = weaker reporter binding
test.context: Eterna round: R107; input ligand: theophylline 20 uM
Your answer should be a number followed by the unit of measure.

Respectfully, I request apparent KD of MS2 coat protein for each entry included below.
1. CAUGAAGUAACUGAUACCAGUGUACACAUGAGGAUCACCCAUGUGUUGGGUUUUGUUGUACACCCUUGGCAGCAGAAUCUUUAUG [AstrosExyTheB#8]
2. GGAAACCAAAGCGAUACCAGCGUACAUGAAAAGAGCGAAAACAUGAGGAUCACCCAUGUACGCCCUUGGCAGCGCAAAACCAAGG
3. ACAUGAGGAUCACCCAUGUAAUAAUCAGAAGGAGCGUGGAAUAACACAGGUAGGUCGCUGAUGUUUGGUUAAAAUUAUUCGUGAA [JR_ExcArginiA_Sub001]
4. UCGUUUUAGUCGGCCGCCACUGUGAGCAUGGUUAACAUGAGGAUCACCCAUGUCCCGUACUAUAACAGGACCGGGACGUAGUUGC [#09 Same State - Tryptophan B]

a:
1. 84.3 nM
2. 50.8 nM
3. 16.6 nM
4. 109 nM
